assay: label from the status in PepcDB records

ordered_residues	protein production
MEVKMNEIMEALEQSELIIIHRHLRPDPDAYGSQLGLKYYLQKKFPNKQIYAVGANEDSLKFIGLMDEIDDDMYKKATVVVCDTANAPRIDDQRYDTGTKLLKIDHHPATDQYGDINYVNTKASSTSEIIYEFILHFNDEHIIDEQVARVLYLGIVGDTGRFLFNNTTPRTMQIAGKLLTYPFDHNQELNKMSEKDPKLLPFQGYILQNFDLNDKGFCKVKITKDILEKFQIQPNEASLFVNTIADIRGLKIWMFGVDEGDQIRCRLRSKGHIIINDVANTFGGGGHPNASGVSVNSWEQFEQLAEALNDKL	failed
DYIEGVIADISDVYDELRLRKQAEVALQASEAELRSLFSAIPDPLCVVTAQGRVIETVAGNPRQLYSSVEEKVGKTLHQIFEEEQADKFMGYIQQVLRTQQVLTVEYSLQIDGRETWFSARIAPIRHE	failed

These measurements were taken from a protein production outcome set (Wang et al. 2014).
